Here, each record is paired with measured pIC50 data.
- System: HL-60
- assay_name: Cytotoxicity against human HL60 after 48 hrs by MTT assay
- Assay type: functional, cell-based
- experimental_setup: HL-60, 48 h
pIC50: −log10 of the molar value.
measurement_label: pIC50

[[record]]
smiles_code = "Cc1nn(-c2ccc([N+](=O)[O-])cc2)c(C)c1-c1ccccc1-c1c(C)nn(-c2ccc([N+](=O)[O-])cc2)c1C"
measured = 4.79

[[record]]
smiles_code = "O=[N+]([O-])c1ccc(-n2cc(-c3ccc(C(F)(F)F)cc3)cn2)cc1"
measured = 4.76

[[record]]
smiles_code = "O=[N+]([O-])c1ccc(-n2cc(-c3ccncc3)cn2)cc1"
measured = 4.75

[[record]]
smiles_code = "CCCCCCCCOc1cc(-c2c(C)nn(-c3ccc([N+](=O)[O-])cc3)c2C)cc(-c2c(C)nn(-c3ccc([N+](=O)[O-])cc3)c2C)c1"
measured = 5.10

[[record]]
smiles_code = "Cc1nn(-c2ccc([N+](=O)[O-])cc2)c(C)c1-c1cccc(-c2c(C)nn(-c3ccc([N+](=O)[O-])cc3)c2C)c1"
measured = 4.97

[[record]]
smiles_code = "O=[N+]([O-])c1ccc(-n2cc(-c3cc(C(F)(F)F)cc(C(F)(F)F)c3)cn2)cc1"
measured = 4.94

[[record]]
smiles_code = "O=[N+]([O-])c1ccc(-c2cnn(-c3ccc([N+](=O)[O-])cc3)c2)cc1"
measured = 5.06

